B1: Poly(rC)-binding protein 1, residues 278 to 350; numbered along this chain, Q15365 (parent)
chain: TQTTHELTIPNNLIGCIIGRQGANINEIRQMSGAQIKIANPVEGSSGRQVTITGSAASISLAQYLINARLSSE

Variants of: B1
Experiment: abundance fitness (aPCA) (normalised: wild type 0, dead -1); higher = more abundant; growth selection in yeast, the domain comes from the species named
Conditions: Homo sapiens
Everything with abundance fitness lower than -0.4 is 0 (no); everything else, including exactly -0.4, is 1 (yes).

[ask] Reported abundance fitness reaches at least -0.4 for `S32I` ?
[reply] 0 (no)

[ask] Input `L13Q`
[reply] 1 (yes)

[ask] Input `G33C`
[reply] 0 (no)

[ask] Input `G22S`
[reply] 1 (yes)

[ask] Input `Q2M`
[reply] 1 (yes)

[ask] Input `Q21I`
[reply] 0 (no)

[ask] Input `S45W`
[reply] 0 (no)

[ask] Input `S55Q`
[reply] 1 (yes)

[ask] Input `T1A`
[reply] 1 (yes)

[ask] Input `S72K`
[reply] 1 (yes)

[ask] Input `S60P`
[reply] 0 (no)

[ask] Input `V50I`
[reply] 1 (yes)

[ask] Input `I66R`
[reply] 0 (no)

[ask] Input `P10R`
[reply] 0 (no)

[ask] Input `N67L`
[reply] 1 (yes)

[ask] Input `I25G`
[reply] 0 (no)

[ask] Input `T8Y`
[reply] 1 (yes)

[ask] Input `I18L`
[reply] 1 (yes)

[ask] Input `S58P`
[reply] 0 (no)

[ask] Input `T3C`
[reply] 1 (yes)

[ask] Input `A62M`
[reply] 0 (no)
